- Test system: HCI-005.E2 (organoid from a breast cancer xenograft with a HER2-positive history)
- method.summary: CTG-3D luminescence at 96 h relative to day-0 seeding control (ratio to day 0); higher = more growth / less cytotoxicity; PDxO 3D drug screen (set 2), 96 h, CTG-3D normalised to day-0 seeding control.
- condition.details: 100 µM
Returns yes if the recorded CTG-3D luminescence at 96 h is greater than or equal to 0.09, and no otherwise.

Past entries and their recorded results:
molecule=Nc1cc(C(F)(F)F)c(-c2cc(N3CCOCC3)nc(N3CCOCC3)n2)cn1 class_assignment=yes
molecule=CC(=O)O[C@@]12CO[C@@H]1C[C@H](O)[C@@]1(C)C(=O)[C@H](O)C3=C(C)[C@@H](OC(=O)[C@H](O)[C@@H](NC(=O)OC(C)(C)C)c4ccccc4)C[C@@](O)([C@@H](OC(=O)c4ccccc4)[C@H]21)C3(C)C class_assignment=yes

I'd appreciate it if you could say whether COc1cccc2c1C(=O)c1c(O)c3c(c(O)c1C2=O)C[C@@](O)(C(=O)CO)C[C@@H]3O[C@H]1C[C@H](N)[C@@H](O)[C@H](C)O1 [epirubicin] has CTG-3D luminescence at 96 h at least equal to 0.09.
no

I'd appreciate it if you could say whether CCOc1ccn(-c2ccc(F)cc2)c(=O)c1C(=O)Nc1ccc(Oc2ccnc(N)c2Cl)c(F)c1 has CTG-3D luminescence at 96 h at least equal to 0.09.
yes

###

- System: HCI-001 (organoid from a triple-negative breast cancer xenograft)
- method.summary: CTG-3D luminescence at 96 h relative to day-0 seeding control (ratio to day 0); higher = more growth / less cytotoxicity; PDxO 3D drug screen, 96 h, CTG-3D normalised to day-0 seeding control.
- condition.details: 10 µM; days in culture: 364
Collected CTG-3D luminescence at 96 h values appear next to each entry.
Please give only the number in your answer, with no unit.

Some compounds with recorded CTG-3D luminescence at 96 h:
structure_notation=NC1(C(=O)N[C@@H](CCO)c2ccc(Cl)cc2)CCN(c2nc[nH]c3nccc2-3)CC1 system_tested=HCI-001 endpoint_result=0.605
structure_notation=CCc1c2c(nc3ccc(O)cc13)-c1cc3c(c(=O)n1C2)COC(=O)[C@]3(O)CC system_tested=HCI-001 endpoint_result=0.0303
structure_notation=O=C(O)C1(C(=O)O)CCC1.[NH2-].[NH2-].[Pt+2] system_tested=HCI-001 endpoint_result=1.56

Continue with the next compound.
Param item = NC(=O)c1cccc2cn(-c3ccc([C@@H]4CCCNC4)cc3)nc12 ; retrieve measured CTG-3D luminescence at 96 h.
1.2

###

- Test system: HCI-023 (organoid from a triple-negative breast cancer xenograft)
- method.summary: CTG-3D luminescence at 96 h relative to day-0 seeding control (ratio to day 0); higher = more growth / less cytotoxicity; PDxO 3D drug screen, 96 h, CTG-3D normalised to day-0 seeding control.
- condition.details: 0.005 µM; days in culture: 111
metric: CTG-3D luminescence at 96 h
Please give only the number in your answer, with no unit.

Some molecules with recorded CTG-3D luminescence at 96 h:
structure_notation=Cc1nc(-c2cn3c(n2)-c2ccc(-c4cnn(C(C)(C)C(N)=O)c4)cc2OCC3)n(C(C)C)n1 system_tested=HCI-023 endpoint_result=1.4
structure_notation=CC(C)(C(=O)NCC(F)(F)C(F)(F)F)C(=O)N[C@@H]1C(=O)Nc2ccccc2-c2ccccc21 system_tested=HCI-023 endpoint_result=0.961

Param item = NC(=O)Nc1cc(-c2cccc(F)c2)sc1C(=O)N[C@H]1CCCNC1 ; retrieve measured CTG-3D luminescence at 96 h.
1.15

Param item = O=C(/C=C/c1cccnc1)NCCCCC1CCN(C(=O)c2ccccc2)CC1 ; retrieve measured CTG-3D luminescence at 96 h.
0.244

meta.source: the supplement of paper PMC8882468
